- System: wheat germ agglutinin (Triticum aestivum), Alexa647-labelled
- procedure_details: wheat germ agglutinin binders on compound microarrays, profiling panel, artefact control for SMM control-protein annotation, biochemical, small-molecule microarray, 635/667 nm fluorescence (AID 1140);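 also: score merges 667 nm feature emission with signal to noise over triplicate slides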
- measurement_parameters: WGA-A647 binding, 635 nm fluorescence, higher = more signal
This section presents compounds with their documented composite z-score values.
Lab note: write the figure by itself, no unit.

compound: Cc1ccc(S[C@]2(C(=O)NCCN3CCOCC3)CC(=O)N(C3CCCCC3)[C@@H]2c2ccc(CO)cc2I)cc1
composite z-score: 0.977
//
compound: COC(=O)C1=CC(CCCO)=CC(C2CC2)N(Cc2cccc(OC(F)(F)F)c2)C=C1C(=O)OC (centres undefined)
composite z-score: 0.824
//
compound: CCCCCCCCCCC(O)C1C=CC2C(=O)N(C)C(=O)C2N1N1CCCCC1 (centres undefined)
composite z-score: -0.325
//
compound: O=C1O[C@H](c2ccccc2)[C@H](c2ccccc2)N2[C@H]1[C@@H](C(=O)NC[C@H](O)c1ccccc1)[C@]1(C(=O)Nc3ccc(C#CCCO)cc31)[C@H]2c1ccccc1OCCO
composite z-score: 0.593
//
compound: CC(C)C[C@H]1NC(=O)[C@@]23C(=O)N[C@@H](Cc4ccccc4)C2[C@H](C)[C@@]2(C)O[C@H]2C3/C=C/C/C=C\CNC(=O)[C@@H]2CCCN2C1=O (some centres undefined)
composite z-score: 0.032
//
compound: CN(C)C(=O)[C@]1(Cc2ccccc2CN=[N+]=[N-])N=C(c2ccc(OCCCO)cc2)O[C@@H]1c1ccccc1N=[N+]=[N-]
composite z-score: 1.12

Req: Which composite z-score is listed for C[C@H]1C2[C@H](Cc3ccccc3)NC(=O)[C@]23C(=O)NCC(=O)N2CCC[C@H]2C(=O)NC/C=C\C/C=C/C3[C@@H]2O[C@]12C (some centres undefined) ?
Resp: -0.121

Req: Which composite z-score is listed for COC(=O)[C@]1(CO)N=C(c2ccc(OCCCO)cc2)O[C@@H]1c1ccccc1CN=[N+]=[N-] ?
Resp: -0.342

Req: Which composite z-score is listed for CCOC(=O)C[C@H]1[C@H](OC(=O)c2ccc(-c3ccccc3)cc2)[C@@H](NC(=O)c2ccc3ccccc3c2)c2cc(OCCCO)ccc2N1C(=O)c1ccccc1 ?
Resp: 0.3

Req: Which composite z-score is listed for CCCCC(O)C1C=CC2C(=O)NC(=O)C2N1Nc1ccccn1 (centres undefined) ?
Resp: 0.135

# credit: PubChem BioAssay
